# Test system: IGROV1 ovarian
# method-notes: NCI tumour cell line growth inhibition, 48 h
Kindly return t if reported TGI is no lower than 10 µM; return f if it is lower.

Known results for compounds:
compound	study-system	label-value
O=C(/C=C/c1ccc(C(F)(F)F)cc1)c1ccc(Nc2nc(NCCO)nc(NCCO)n2)cc1	IGROV1 ovarian	f
S=c1nc(-c2nc(=S)[nH]c3c2CCCCCCCCCC3)c2c([nH]1)CCCCCCCCCC2	IGROV1 ovarian	t
CN=C(Nn1cnnc1)OC	IGROV1 ovarian	t
COc1ccc(/C=C/c2c(C(=O)/C=C/c3ccc(Cl)cc3)c(C)nc3ccccc23)cc1	IGROV1 ovarian	f
Cc1csc2c1C(=O)c1ccsc1C2=O	IGROV1 ovarian	t
COc1ccc(C(O)c2ccc3c(c2)OCO3)cc1 (stereo unspecified)	IGROV1 ovarian	t
O=c1[nH]cc(CS(=O)(=O)Cc2c[nH]c(=O)[nH]c2=O)c(=O)[nH]1	IGROV1 ovarian	t
Cc1ccc(Cl)cc1Nc1nc(C(F)(F)F)ccc1C(=O)Nc1cccc(C(F)(F)F)c1	IGROV1 ovarian	t

Q: Is TGI at least 10 µM? Consider O=C(c1ccccc1)C1C(C(=O)c2ccccc2)N1Cc1ccccc1 (stereo unspecified)
A: t

Q: Evaluate OCC(O)C(O)c1nn(-c2ccccc2)c2nc3cc(Cl)c(Cl)cc3nc12 (stereo unspecified) : TGI at minimum 10 µM?
A: t

Q: TGI >= 10 µM for CC(=O)NS(=O)(=O)c1ccc(NC(=O)COC(=O)c2cccc3c(=O)c4ccccc4[nH]c23)cc1 ?
A: t

---

# Test system: MOLT-4 leukemia
# method-notes: NCI tumour cell line growth inhibition, 48 h
Hi there, I'd appreciate the recorded TGI for every entry that follows.
Answers are plain numbers, in µM.

// known answers, use as guide
molecule	measured-parameter	observed-result
Cc1cc(C)c(S(=O)(=O)N(CCCCN)OCCCN)c(C)c1	TGI	28.6
Cc1cc(C)cc(-n2c3nc(=O)n(C)c(=O)c-3nc3ccccc32)c1	TGI	52.4
CCCCCCCCCCCC(=O)OCC1OC(n2cc(F)c(=O)[nH]c2=O)C(NC(=O)OCc2ccccc2)C(O)C1O (stereo not given)	TGI	53.4

Now take the following molecule into account.
Q: Returns the measured TGI for the input molecule. Input: CC(C)(C)N=C1CC(C)(C)c2ccccc2C(=Nc2ccccc2)S1
A: 69.2

---

Consider the following compounds; for each one, report its TGI.
# Test system: RXF 393 renal
# method-notes: NCI tumour cell line growth inhibition, 48 h

Take a look at these entries with their results.
compound	TGI
C/C(=C\c1ccc(Cl)cc1)C(C)(C)C(=O)O	> 100 µM
C#CCN1C(=O)/C(=c2\sc3n(c2=O)C2C(NN=3)N(CC)C(=O)N2CC)c2ccccc21 (stereo unspecified)	2.28 µM
CN1CCn2c(Br)ccc2C1=O	> 100 µM
CC(C)[C@@H]1C=C(c2ccccc2)c2ccccc2C1C(C#N)(C#N)C(C)C (stereo partly specified)	> 100 µM

For each listed entry, give its TGI.
1. Cn1c2c([N+](=O)[O-])[se]nc2c(=O)n1-c1ccc([N+](=O)[O-])cc1
2. Cn1nc(C(F)(F)F)c(-c2ccc(Cl)c(C(F)(F)F)c2)c1-c1ccc(OCc2ccc(Cl)cc2)cc1O

A:
["2.21 µM", "4.32 µM"]

Answer for every listed entry: what is its TGI? The entries follow.
1. CCCCCCCCCCCC(=O)OCC1OC(n2cc(F)c(=O)[nH]c2=O)C(NC(=O)OCc2ccccc2)C(O)C1O (stereo unspecified)
2. Nc1ccc(-c2nc3ccc4[nH]ncc4c3c3c2CCCC3)cc1F
3. Nc1ccc2c(c1)C(=O)c1ccccc1-2
4. O=C(N/N=C(/c1nc2ccc(Cl)cc2[nH]c1=O)C(O)c1ccc(Cl)cc1Cl)c1ccncc1 (stereo unspecified)
5. CN(C(=O)C1(C(=O)C=[N+]=[N-])CC1)c1ccccc1
6. O=C(N/N=C\c1cccc2ccccc12)Nc1ccc([N+](=O)[O-])cc1
7. CCCCc1c2c(nc3c1CCc1cc4c(nc1-3)-c1nc3c(c(CCCC)c1CC4)CCC/C3=C\c1ccccc1)/C(=C/c1ccccc1)CCC2

A:
73.6 µM
2 µM
> 100 µM
> 100 µM
> 100 µM
> 42.6 µM
65.4 µM

// each listed compound needs a value for TGI
1. c1ccc2c(CNCCCCCCNCc3cccc4ccccc34)cccc2c1
2. CC#C[C@@]1(O)CCCC[C@@H]1O
3. Cc1cccc(NC(=O)C(=O)C2C(=O)NC(=O)NC2=O)c1C
4. COc1cc2cc(C(=O)N3CC(CCl)c4c3cc(N)c3ccccc43)[nH]c2cc1OCCN(C)C (stereo unspecified)
5. C[Si](C)(C)/C=C/CCC(C=O)(CCCl)c1ccccc1 (stereo unspecified)
6. CC1=C(C(=O)OCCc2ccc([N+](=O)[O-])cc2)C(c2ccccc2[N+](=O)[O-])C(C(=O)OC(C)C)=C(C)N1 (stereo unspecified)
7. O=C(c1cc(O)ccc1O)c1ccccc1C(Cl)(Cl)Cl
8. Cc1ccc2nc3c(C)c(Cl)c(=O)cc-3sc2c1

A:
1: 6.9 µM; 2: > 100 µM; 3: > 100 µM; 4: < 0.005 µM; 5: 54.6 µM; 6: 35.9 µM; 7: > 100 µM; 8: 73.7 µM
